Sourced from patent US20240018161A1

assay target: CFTR-mediated chloride transport in human intestinal epithelial enteroid cells (Homo sapiens, UniProt P13569)
Sequence (P13569 with tags, fused parts or gaps DEL508-508): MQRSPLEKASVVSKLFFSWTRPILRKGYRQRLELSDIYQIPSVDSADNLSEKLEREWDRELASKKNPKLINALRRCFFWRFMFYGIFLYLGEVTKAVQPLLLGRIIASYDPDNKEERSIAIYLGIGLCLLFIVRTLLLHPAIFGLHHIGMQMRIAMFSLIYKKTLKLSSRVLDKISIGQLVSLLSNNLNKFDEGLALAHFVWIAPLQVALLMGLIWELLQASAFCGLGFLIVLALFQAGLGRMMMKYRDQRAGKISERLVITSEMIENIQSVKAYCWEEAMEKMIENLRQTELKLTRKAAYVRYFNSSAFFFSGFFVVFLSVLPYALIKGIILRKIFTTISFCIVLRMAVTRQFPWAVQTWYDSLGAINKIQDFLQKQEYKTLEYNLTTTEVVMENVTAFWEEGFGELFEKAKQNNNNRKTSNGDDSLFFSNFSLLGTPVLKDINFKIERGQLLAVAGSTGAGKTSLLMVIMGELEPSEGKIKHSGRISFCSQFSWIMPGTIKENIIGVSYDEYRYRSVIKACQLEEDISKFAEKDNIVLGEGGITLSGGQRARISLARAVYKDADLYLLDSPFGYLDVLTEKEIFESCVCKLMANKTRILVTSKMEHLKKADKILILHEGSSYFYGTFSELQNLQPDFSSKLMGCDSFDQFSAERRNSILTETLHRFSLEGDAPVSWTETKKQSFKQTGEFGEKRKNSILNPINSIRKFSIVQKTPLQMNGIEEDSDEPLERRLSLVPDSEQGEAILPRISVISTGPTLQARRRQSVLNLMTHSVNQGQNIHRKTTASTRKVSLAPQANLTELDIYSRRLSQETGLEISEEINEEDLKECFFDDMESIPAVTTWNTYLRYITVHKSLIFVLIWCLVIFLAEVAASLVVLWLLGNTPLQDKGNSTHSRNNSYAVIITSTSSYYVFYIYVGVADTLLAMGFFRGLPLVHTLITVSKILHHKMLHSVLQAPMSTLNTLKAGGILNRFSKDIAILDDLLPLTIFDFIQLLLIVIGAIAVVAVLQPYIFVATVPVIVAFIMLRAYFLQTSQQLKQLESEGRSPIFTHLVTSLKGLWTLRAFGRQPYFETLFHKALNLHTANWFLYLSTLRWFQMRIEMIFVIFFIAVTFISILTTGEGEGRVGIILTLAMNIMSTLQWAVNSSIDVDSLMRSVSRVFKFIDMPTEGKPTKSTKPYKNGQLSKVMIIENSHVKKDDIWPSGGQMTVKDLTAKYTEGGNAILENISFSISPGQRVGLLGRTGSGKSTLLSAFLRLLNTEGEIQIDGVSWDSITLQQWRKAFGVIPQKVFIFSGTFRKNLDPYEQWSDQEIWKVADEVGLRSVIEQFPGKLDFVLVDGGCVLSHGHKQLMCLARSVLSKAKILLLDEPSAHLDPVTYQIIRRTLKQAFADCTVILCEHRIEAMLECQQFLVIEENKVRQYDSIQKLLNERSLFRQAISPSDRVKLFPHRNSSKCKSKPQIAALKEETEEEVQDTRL
method notes: Membrane potential dye, Enteroid Assay A
Format: cell-based
assay conditions: enteroid cells incubated with test compound 18-24 hours; acute 10 μM forskolin and 300 nM N-[2,4-bis(1,1-dimethylethyl)-5-hydroxyphenyl]-1,4-dihydro-4-oxoquinoline-3-carboxamide; read-out: Ent. A EC50
assay endpoint: EC50

Worked cases, answers included:
INSERT INTO assay_data (molecule, measured_value) VALUES
  ('Cc1cccc(C)c1-c1cc2nc(n1)NS(=O)(=O)c1cccc(c1)C(=O)N1Cc3ccccc3C[C@@H]1CO2', '< 1 µM'),
  ('Cc1cccc(C)c1-c1cc2nc(n1)NS(=O)(=O)c1cccc(c1)C(=O)N1CCN(C)CC1CO2 (stereo not drawn)', '3 to 30 µM');

Item Cc1cccc(C)c1-c1cc2nc(n1)NS(=O)(=O)c1cccc(c1)C(=O)N1CCN(Cc3cccnc3)C[C@H](C1)O2 has what recorded EC50?
3 to 30 µM

Quick one: EC50 of CCC(CC)CN1CCN2C(=O)c3cccc(c3)S(=O)(=O)Nc3nc(cc(-c4c(C)cccc4C)n3)OC[C@H]2C1 ?
< 1 µM

Name the recorded EC50 for Cc1cccc(C)c1-c1cc2nc(n1)NS(=O)(=O)c1cccc(c1)C(=O)N1CCN(C(=O)N(C(C)C)C(C)C)C[C@@H]1CO2 .
1 to 3 µM

Need EC50, item Cc1cccc(C)c1-c1cc2nc(n1)NS(=O)(=O)c1cccc(c1)C(=O)N1CCCC(O2)C1CC(C)C (single isomer, unassigned) [Compound 230]
< 1 µM
